# target.desc: T1, CD3 epsilon homodimer protein (UniProt P07766 23-126)
# T1 construct: also called CD3 (CD3 epsilon)
# assay.notes: SPR, antibody over immobilised CD3e homodimer;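 further: SPR at 25 °C with CD3 epsilon homodimer amine-coupled to a CM4 sensor chip and antibody flowed over as analyte in HBS-EP+ running buffer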
experimental.endpoint: KD ratio to GLS3000

binder="CE115HA000/GLS3000 N30R (antibody, IgG1, name in Kabat numbering, V domains shown, one-arm IgG1) VH: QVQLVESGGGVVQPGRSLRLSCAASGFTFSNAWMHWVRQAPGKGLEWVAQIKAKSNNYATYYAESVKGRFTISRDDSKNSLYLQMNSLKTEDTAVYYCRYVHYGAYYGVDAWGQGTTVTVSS VL: DIVMTQSPLSLPVTPGEPASISCRSSQSLVHSNRRTYLHWYQQKPGQAPRLLIYKVSNRFSGVPDRFSGSGSGTDFTLKISRVEAEDVGVYYCGQGTQVPYTFGQGTKLEIK" readout_number=1.73
binder="CE115HA000/GLS3000 S27aP (antibody, IgG1, name in Kabat numbering, V domains shown, one-arm IgG1) VH: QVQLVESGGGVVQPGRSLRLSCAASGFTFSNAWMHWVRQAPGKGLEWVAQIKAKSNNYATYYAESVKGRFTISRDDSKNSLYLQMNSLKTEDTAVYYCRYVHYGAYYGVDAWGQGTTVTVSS VL: DIVMTQSPLSLPVTPGEPASISCRSSQPLVHSNRNTYLHWYQQKPGQAPRLLIYKVSNRFSGVPDRFSGSGSGTDFTLKISRVEAEDVGVYYCGQGTQVPYTFGQGTKLEIK" readout_number=1.01
